- PROTOCOL: Retention time of the compound in presence of KHSO5 and Mn(III)TDCPP/Cl by UHPLC-MS analysis
- Assay type: physicochemical
REPORTED_METRIC: Retention time (min)
API: value field is a number in min; no unit string.

Recorded Retention time (molecule CCN(CC)CCNC(=O)c1c(COC)[nH]c(/C=C2\C(=O)Nc3ccc(F)cc32)c1C ): 4.56

====

- PROTOCOL: Retention time of the compound in presence of MMPP and Mn(III)TDCPP/Cl by UHPLC-MS analysis
- Format: physicochemical
Exercise: state measured Retention_time for each of the compounds provided.
API: value field is a number in min; no unit string.

Recorded Retention_time (compound Cc1ccc(Nc2ncc(Cl)c(N(C)c3ccc4c(C)n(C)nc4c3)n2)cc1S(N)(=O)=O ): 3.55

Recorded Retention_time (compound Cc1ccc(Nc2ncc(Cl)c(N(C)c3ccc4c(C=O)n(C)nc4c3)n2)cc1S(N)(=O)=O ): 3.63

Recorded Retention_time (compound Cc1ccc(Nc2nccc(N(C)c3ccc4c(CO)n(C)nc4c3)n2)cc1S(N)(=O)=O ): 2.56

Recorded Retention_time (compound Cc1ccc(Nc2ncc(Cl)c(N(C)c3ccc4c(CO)n(C)nc4c3)n2)cc1S(N)(=O)=O ): 3.32

Recorded Retention_time (compound Cc1ccc(Nc2nccc(N(C)c3ccc4c(C=O)n(C)nc4c3)n2)cc1S(N)(=O)=O ): 2.82

These data points were gathered from ChEMBL document CHEMBL4145691.
